The measurements presented in this section are drawn from patent US20100298141A1.

- Tested on: velvetleaf
- protocol-description: Test C pre-/postemergence test
- Type: in vivo, Abutilon theophrasti
- experimental-parameters: 125 g ai/ha, preemergence; scale 0 (no effect) to 100 (complete control)
readout-label: Velvetleaf plant response rating

Query: What does the record list as Velvetleaf plant response rating for Cc1cc[n+]([O-])c(S(=O)(=O)Cc2c(C(F)(F)F)nn(C)c2OCC(F)F)c1 ?
Response: 100

Query: Another compound to look at: Cn1nc(C(F)(F)F)c(C[S+]([O-])c2ccc(F)c[n+]2[O-])c1Cl (stereo not shown)
Response: 5

Query: Another compound to look at: CCc1cc[n+]([O-])c(S(=O)(=O)Cc2c(C(F)(F)F)nn(C)c2OCC(F)(F)F)c1
Response: 100

Query: Another compound to look at: CCn1nc(C(F)(F)F)c(C[S+]([O-])c2cccc[n+]2[O-])c1OCC(F)(F)F (racemic)
Response: 100

---

For each entry below, report its Crabgrass, Naked plant response rating value.
- Test system: naked crabgrass
- protocol-description: Test F preemergence test
- Assay type: in vivo, Digitaria nuda
- experimental-parameters: 62 g ai/ha, Preemergence; scale 0 to 100
Could you respond with only the numeric value?

Query: What does the record list as Crabgrass, Naked plant response rating for CCn1nc(C(F)(F)F)c(CS(=O)(=O)c2cc(C)cc[n+]2[O-])c1OCC(F)(F)F [Compound 64] ?
Response: 100

Query: Another compound to look at: Cc1cc[n+]([O-])c([S+]([O-])Cc2c(C(F)(F)F)nn(C)c2Cl)c1 (racemic) [Compound 20]
Response: 95

Query: Another compound to look at: CC(c1c(C(F)(F)F)nn(C)c1OCC(F)(F)F)S(=O)(=O)c1cccc[n+]1[O-] (racemic) [Compound 33]
Response: 100

Query: Another compound to look at: Cc1cc[n+]([O-])c(S(=O)(=O)C(C)c2c(C(F)(F)F)nn(C)c2OC(F)F)c1 (stereo not shown) [Compound 11]
Response: 98

Query: Another compound to look at: Cc1cc[n+]([O-])c([S+]([O-])Cc2c(C(F)(F)F)nn(C)c2OCC(F)(F)F)c1 (racemic) [Compound 30]
Response: 100

Query: Another compound to look at: CC(Oc1c(C[S+]([O-])c2cccc[n+]2[O-])c(C(F)(F)F)nn1C)C(F)(F)F (stereo not shown) [Compound 77]
Response: 90

Query: Another compound to look at: Cn1nc(C(F)(F)F)c(C[S+]([O-])c2cccc[n+]2[O-])c1OCC(F)(F)F (racemic) [Compound 28]
Response: 90

Query: Another compound to look at: CCn1nc(C(F)(F)F)c(CS(=O)(=O)c2cccc[n+]2[O-])c1OCC(F)(F)F [Compound 63]
Response: 100

Query: Another compound to look at: Cn1nc(C(F)(F)F)c(C[S+]([O-])c2ccc(Cl)c[n+]2[O-])c1OC(F)F (stereo not shown) [Compound 6]
Response: 100

Query: Another compound to look at: Cc1cc[n+]([O-])c(S(=O)(=O)Cc2c(C(F)(F)F)nn(C)c2OCC(F)(F)F)c1 [Compound 31]
Response: 100

---

For each entry below, report its Plant response rating (0 to 100), Blackgrass value.
- System: blackgrass
- protocol-description: Test C pre-/postemergence test
- Type: in vivo, Alopecurus myosuroides
- experimental-parameters: Preemergence, 250 g ai/ha
Could you respond with only the numeric value?

Query: What does the record list as Plant response rating (0 to 100), Blackgrass for Cn1nc(C(F)(F)F)c(C(Cl)S(=O)(=O)c2cccc[n+]2[O-])c1Cl (centres unmarked) [Compound 12] ?
Response: 100

Query: Another compound to look at: Cn1nc(C(F)(F)F)c(C[S+]([O-])c2cc(C(F)(F)F)cc[n+]2[O-])c1Cl (racemic) [Compound 34]
Response: 65

Query: Another compound to look at: Cn1nc(C(F)(F)F)c(C[S+]([O-])c2cccc[n+]2[O-])c1Cl (centres unmarked) [Compound 8]
Response: 100

Query: Another compound to look at: Cn1nc(C(F)(F)F)c(CS(=O)(=O)c2cc(C(C)(C)C)cc[n+]2[O-])c1OC(F)F [Compound 25]
Response: 0

Query: Another compound to look at: CC(c1c(C(F)(F)F)nn(C)c1OCC(F)(F)F)S(=O)(=O)c1cccc[n+]1[O-] (racemic) [Compound 33]
Response: 100

Query: Another compound to look at: Cc1cc[n+]([O-])c([S+]([O-])Cc2c(C(F)(F)F)nn(C)c2Cl)c1 (racemic) [Compound 20]
Response: 100

Query: Another compound to look at: CC(c1c(C(F)(F)F)nn(C)c1OC(F)F)S(=O)(=O)c1cccc[n+]1[O-] (centres unmarked) [Compound 5]
Response: 100

Query: Another compound to look at: Cc1cc[n+]([O-])c([S+]([O-])Cc2c(C(F)(F)F)nn(C)c2OCC(F)(F)F)c1 (racemic) [Compound 30]
Response: 100

---

For each entry below, report its Plant response rating, Mallow value.
- Tested on: common mallow
- protocol-description: Test F preemergence test
- Format: in vivo, Malva sylvestris
- experimental-parameters: Preemergence; 31 g ai/ha; scale 0 to 100
Could you respond with only the numeric value?

Query: What does the record list as Plant response rating, Mallow for Cc1cc[n+]([O-])c(S(=O)(=O)C(Cl)c2c(C(F)(F)F)nn(C)c2OCC(F)(F)F)c1 (racemic) [Compound 37] ?
Response: 0

Query: Another compound to look at: Cc1cc[n+]([O-])c(S(=O)(=O)Cc2c(C(F)(F)F)nn(C)c2Cl)c1 [Compound 19]
Response: 0

Query: Another compound to look at: Cc1cc[n+]([O-])c([S+]([O-])Cc2c(C(F)(F)F)nn(C)c2Cl)c1 (racemic) [Compound 20]
Response: 25

Query: Another compound to look at: CC(Oc1c(C[S+]([O-])c2ccc(Cl)c[n+]2[O-])c(C(F)(F)F)nn1C)C(F)(F)F (stereo not shown) [Compound 87]
Response: 75

---

- Tested on: barnyardgrass
- protocol-description: Test C flooded paddy test
- Type: in vivo, Echinochloa crus-galli
- experimental-parameters: Flood, 250 g ai/ha; scale 0 to 100, 0 no effect, 100 complete control; 13 to 15 days
readout-label: Plant response rating, Barnyardgrass
Could you respond with only the numeric value?

Query: What does the record list as Plant response rating, Barnyardgrass for CC(c1c(C(F)(F)F)nn(CC(F)(F)F)c1Cl)[S+]([O-])c1cccc[n+]1[O-] (centres unmarked) [Compound 46] ?
Response: 60

Query: Another compound to look at: CCc1cc[n+]([O-])c(S(=O)(=O)Cc2c(C(F)(F)F)nn(C)c2OCC(F)(F)F)c1 [Compound 60]
Response: 45

Query: Another compound to look at: CCOc1ccc(S(=O)(=O)Cc2c(C(F)(F)F)nn(C)c2OC(F)F)[n+]([O-])c1 [Compound 105]
Response: 0

Query: Another compound to look at: CC(C)c1cc[n+]([O-])c([S+]([O-])Cc2c(C(F)(F)F)nn(C)c2OC(F)F)c1 (centres unmarked) [Compound 109]
Response: 20

Query: Another compound to look at: Cn1nc(C(F)(F)F)c(CS(=O)(=O)c2ccc(F)c[n+]2[O-])c1Cl [Compound 53]
Response: 80

---

For each entry below, report its Plant response rating, Nightshade value.
- Test system: eastern black nightshade
- protocol-description: Test G preemergence test
- Assay type: in vivo, Solanum ptycanthum
- experimental-parameters: 62 g ai/ha, scale 0 to 100
Could you respond with only the numeric value?

Query: What does the record list as Plant response rating, Nightshade for Cc1cc[n+]([O-])c(S(=O)(=O)C(Cl)c2c(C(F)(F)F)nn(C)c2Cl)c1 (racemic) ?
Response: 0

Query: Another molecule to look at: Cc1cc[n+]([O-])c(S(=O)(=O)C(C)c2c(C(F)(F)F)nn(C)c2Cl)c1 (racemic)
Response: 0

Query: Another molecule to look at: Cn1nc(C(F)(F)F)c(CS(=O)(=O)c2ccc(Cl)c[n+]2[O-])c1OC(F)F
Response: 0

Query: Another molecule to look at: Cn1nc(C(F)(F)F)c(CS(=O)(=O)c2cccc[n+]2[O-])c1OC(F)F
Response: 30

---

- System: wheat
- protocol-description: Test C pre-/postemergence test
- Type: in vivo, Triticum aestivum
- experimental-parameters: preemergence, 125 g ai/ha; scale 0 (no effect) to 100 (complete control)
readout-label: Wheat plant response rating
Could you respond with only the numeric value?

Query: What does the record list as Wheat plant response rating for Cn1nc(C(F)(F)F)c(C[S+]([O-])c2cccc[n+]2[O-])c1OC(F)F (stereo not shown) [Compound 3] ?
Response: 70

Query: Another compound to look at: Cn1nc(C(F)(F)F)c(CS(=O)(=O)c2cccc[n+]2[O-])c1OC(F)F [Compound 4]
Response: 20

Query: Another compound to look at: Cn1nc(C(F)(F)F)c(CS(=O)(=O)c2ccc(Cl)c[n+]2[O-])c1OC(F)F [Compound 7]
Response: 20

Query: Another compound to look at: Cc1cc[n+]([O-])c(S(=O)(=O)Cc2c(C(F)(F)F)nn(C)c2OC(F)F)c1 [Compound 2]
Response: 70
